B1: SLC22A15 (parent)
chain: IAQYALLGYFIRSWRTLAILVNLQ

# Variants of: B1
# ASSAY_DETAILS: protein stability index of a GFP-peptide fusion (GPS, HEK-293T) (PSI 1-6); higher = more stable;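 note: lentivirally expressed fusions sorted by FACS into six bins by GFP to DsRed ratio, PSI derived from sequencing read proportions per bin multiplied by bin number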
# CONDITION: c terminus: a fixed tail appended
Everything with protein stability index lower than 3 is no (0); everything else, including exactly 3, is yes (1).

Example cases with answers are listed next.
INSERT INTO assay_data (record_sequence, answer_label) VALUES
  ('IAQYALLGEFIRSWRTLAILVNLQ [Y9E]', 'no (0)'),
  ('IAQYALLGYFIRSWRHLAILVNLQ [T16H]', 'yes (1)'),
  ('IAQYALLNYFIRSWRTLAILVNLQ [G8N]', 'no (0)'),
  ('IMQYALLGYFIRSWRTLAILVNLQ [A2M]', 'yes (1)');

Request: Identify whether the reported protein stability index of the following variant is 3 or greater: IAQYALLGYFHRSWRTLAILVNLQ [I11H]
Response: no (0)

Request: Same lookup for IAQYALLGYFIRSWRDLAILVNLQ [T16D] , please.
Response: no (0)

Request: Next: IAQYALLGYFIQSWRTLAILVNLQ [R12Q]
Response: no (0)

Request: Lookup IAQYALLGYFIRSWRTLAIWVNLQ [L20W]
Response: no (0)

Request: Okay, and IAQYALLGYFIRSWRTLMILVNLQ [A18M] ?
Response: no (0)
